Provenance of the data: ChEMBL document CHEMBL4840372

tested on: ASPC1; test: Cytotoxicity against human ASPC1 cells assessed as reduction in cell viability by SRB assay; format: functional, cell-based
endpoint: IC50

{"molecule": "CCCCCCC1C([C@@H](O)C(=O)[C@H](C)CCC)C=C2C3(OC)OC(=O)[C@]2(C)CC2=C(C(=O)OC2=O)C13 (stereo partly specified)", "tested on": "ASPC1", "IC50": "> 30 µM"}
{"molecule": "CCCC[C@H]1CC2C([C@@H](O)C(=O)[C@H](O)CCC)C=C3C4(OC(=O)[C@]3(C)CC3=C(C(=O)OC3=O)C24)O1 (stereo partly specified)", "tested on": "ASPC1", "IC50": "> 30 µM"}
{"molecule": "CCCCCCC1C2C(=O)C(=CC1[C@@H](O)C(=O)[C@H](O)CCC)[C@](C)(C(=O)OC)CC1=C2C(=O)OC1=O (stereo partly specified)", "tested on": "ASPC1", "IC50": "> 30 µM"}
{"molecule": "CCCCCCC1C2C(=O)C(=CC1[C@@H](O)C(=O)[C@H](O)CCC)[C@@H](C)CC1=C2C(=O)OC1=O (stereo partly specified)", "tested on": "ASPC1", "IC50": "> 30 µM"}
{"molecule": "CCCCCCC1C([C@@H](O)C(=O)[C@H](O)CCC)C=C2C3(O)OC(=O)[C@]2(C)CC2=C(C(=O)OC2=O)C13 (stereo partly specified)", "tested on": "ASPC1", "IC50": "> 30 µM"}

As a next step, examine the molecule that follows.
Report IC50 for CCCCCCC1C([C@@H](O)C(=O)[C@H](O)CCC)C=C2C3(OC)OC(=O)[C@]2(C)CC2=C(C(=O)OC2=O)C13 (stereo partly specified) please.
> 30 µM

###

tested on: Escherichia coli; assay: Antimicrobial activity against Escherichia coli assessed as reduction in bacterial growth by agar dilution method; type: functional
endpoint: MIC

{"molecule": "CCCC[C@H]1CC2C([C@@H](O)C(=O)[C@H](O)CCC)C=C3C4(OC(=O)[C@]3(C)CC3=C(C(=O)OC3=O)C24)O1 (some centres undefined)", "endpoint": "MIC", "recorded value": "> 50 µM"}
{"molecule": "CCCCCCC1C2C(=O)C(=CC1[C@@H](O)C(=O)[C@H](O)CCC)[C@](C)(C(=O)OC)CC1=C2C(=O)OC1=O (some centres undefined)", "endpoint": "MIC", "recorded value": "> 50 µM"}
{"molecule": "CCCCCCC1C2C(=O)C(=CC1[C@@H](O)C(=O)[C@H](O)CCC)[C@@H](C)CC1=C2C(=O)OC1=O (some centres undefined)", "endpoint": "MIC", "recorded value": "> 50 µM"}

As a next step, examine the molecule that follows.
Report MIC for CCCCCCC1C([C@@H](O)C(=O)[C@H](O)CCC)C=C2C3(OC)OC(=O)[C@]2(C)CC2=C(C(=O)OC2=O)C13 (some centres undefined) please.
> 50 µM

###

Answer each item with its documented IC50.
test system: MGC-803; experiment: Cytotoxicity against human MGC-803 cells assessed as reduction in cell viability by SRB assay; assay type: functional, cell-based

Below are worked cases with known answers.
{"compound": "CCCCCCC1C([C@@H](O)C(=O)[C@H](O)CCC)C=C2C3(OC)OC(=O)[C@]2(C)CC2=C(C(=O)OC2=O)C13 (stereo partly specified)", "endpoint": "IC50", "recorded value": "> 30 µM"}
{"compound": "CCCCCCC1C([C@@H](O)C(=O)[C@H](O)CCC)C=C2C3(O)OC(=O)[C@]2(C)CC2=C(C(=O)OC2=O)C13 (stereo partly specified)", "endpoint": "IC50", "recorded value": "> 30 µM"}
{"compound": "CCCCCCC1C2C(=O)C(=CC1[C@@H](O)C(=O)[C@H](O)CCC)[C@](C)(C(=O)OC)CC1=C2C(=O)OC1=O (stereo partly specified)", "endpoint": "IC50", "recorded value": "> 30 µM"}
{"compound": "CCCC[C@H]1CC2C([C@@H](O)C(=O)[C@H](O)CCC)C=C3C4(OC(=O)[C@]3(C)CC3=C(C(=O)OC3=O)C24)O1 (stereo partly specified)", "endpoint": "IC50", "recorded value": "> 30 µM"}
{"compound": "CCCCCCC1C([C@@H](O)C(=O)[C@H](C)CCC)C=C2C3(OC)OC(=O)[C@]2(C)CC2=C(C(=O)OC2=O)C13 (stereo partly specified)", "endpoint": "IC50", "recorded value": "> 30 µM"}

As a next step, examine the compound that follows.
API: value(readout= IC50, system= MGC-803, query= CCCCCCC1C2C(=O)C(=CC1[C@@H](O)C(=O)[C@H](O)CCC)[C@@H](C)CC1=C2C(=O)OC1=O (stereo partly specified) )
> 30 µM

###

Answer each item with its documented pIC50.
system: NCI-H446; assay: Cytotoxicity against human NCI-H446 cells assessed as reduction in cell viability by SRB assay; type: functional, cell-based
pIC50: −log10 of the molar value.

Below are worked cases with known answers.
{"compound": "CCCC[C@H]1CC2C([C@@H](O)C(=O)[C@H](O)CCC)C=C3C4(OC(=O)[C@]3(C)CC3=C(C(=O)OC3=O)C24)O1 (stereo partly specified)", "tested on": "NCI-H446", "recorded value": "< 4.52"}
{"compound": "CCCCCCC1C([C@@H](O)C(=O)[C@H](C)CCC)C=C2C3(OC)OC(=O)[C@]2(C)CC2=C(C(=O)OC2=O)C13 (stereo partly specified)", "tested on": "NCI-H446", "recorded value": "< 4.52"}
{"compound": "CCCCCCC1C([C@@H](O)C(=O)[C@H](O)CCC)C=C2C3(O)OC(=O)[C@]2(C)CC2=C(C(=O)OC2=O)C13 (stereo partly specified)", "tested on": "NCI-H446", "recorded value": "< 4.52"}
{"compound": "CCCCCCC1C2C(=O)C(=CC1[C@@H](O)C(=O)[C@H](O)CCC)[C@](C)(C(=O)OC)CC1=C2C(=O)OC1=O (stereo partly specified)", "tested on": "NCI-H446", "recorded value": "< 4.52"}
{"compound": "CCCCCCC1C2C(=O)C(=CC1[C@@H](O)C(=O)[C@H](O)CCC)[C@@H](C)CC1=C2C(=O)OC1=O (stereo partly specified)", "tested on": "NCI-H446", "recorded value": "< 4.52"}

Report pIC50 for CCCCCCC1C([C@@H](O)C(=O)[C@H](O)CCC)C=C2C3(OC)OC(=O)[C@]2(C)CC2=C(C(=O)OC2=O)C13 (stereo partly specified) please.
< 4.52

###

tested on: Proteus mirabilis; experiment: Antimicrobial activity against Proteus mirabilis assessed as reduction in bacterial growth by agar dilution method; type: functional
Answer each item with its documented MIC.
Numbers only, in µM.

Below are worked cases with known answers.
{"molecule": "CCCCCCC1C([C@@H](O)C(=O)[C@H](O)CCC)C=C2C3(O)OC(=O)[C@]2(C)CC2=C(C(=O)OC2=O)C13 (some centres not stated)", "tested on": "Proteus mirabilis", "uom": "µM", "MIC": 12.5}
{"molecule": "CCCCCCC1C([C@@H](O)C(=O)[C@H](O)CCC)C=C2C3(OC)OC(=O)[C@]2(C)CC2=C(C(=O)OC2=O)C13 (some centres not stated)", "tested on": "Proteus mirabilis", "uom": "µM", "MIC": 3.13}

As a next step, examine the molecule that follows.
Report MIC for O=C(O)c1cn(C2CC2)c2cc(N3CCNCC3)c(F)cc2c1=O please.
0.098

###

system: SH-SY5Y; experiment: Cytotoxicity against human SH-SY5Y cells assessed as reduction in cell viability by SRB assay; type: functional, cell-based
pIC50: −log10 of the molar value.
endpoint: pIC50

Below are worked cases with known answers.
{"compound": "CCCCCCC1C([C@@H](O)C(=O)[C@H](C)CCC)C=C2C3(OC)OC(=O)[C@]2(C)CC2=C(C(=O)OC2=O)C13 (stereo partly specified)", "pIC50": "< 4.52"}
{"compound": "CCCCCCC1C2C(=O)C(=CC1[C@@H](O)C(=O)[C@H](O)CCC)[C@](C)(C(=O)OC)CC1=C2C(=O)OC1=O (stereo partly specified)", "pIC50": "< 4.52"}
{"compound": "CCCCCCC1C([C@@H](O)C(=O)[C@H](O)CCC)C=C2C3(O)OC(=O)[C@]2(C)CC2=C(C(=O)OC2=O)C13 (stereo partly specified)", "pIC50": "< 4.52"}
{"compound": "CCCC[C@H]1CC2C([C@@H](O)C(=O)[C@H](O)CCC)C=C3C4(OC(=O)[C@]3(C)CC3=C(C(=O)OC3=O)C24)O1 (stereo partly specified)", "pIC50": "< 4.52"}
{"compound": "CCCCCCC1C([C@@H](O)C(=O)[C@H](O)CCC)C=C2C3(OC)OC(=O)[C@]2(C)CC2=C(C(=O)OC2=O)C13 (stereo partly specified)", "pIC50": "< 4.52"}

API: value(readout= pIC50, system= SH-SY5Y, query= CCCCCCC1C2C(=O)C(=CC1[C@@H](O)C(=O)[C@H](O)CCC)[C@@H](C)CC1=C2C(=O)OC1=O (stereo partly specified) )
< 4.52
